run description: Plasma vosaroxin pharmacokinetics in patients
Assay type: in vivo, human
test context: human, plasma, intravenous, CL, mean, twice weekly, Day 8, 9–50 mg/m^2, N 29, cycle 1
property measured: clearance (mL/min)
Dear colleague, please return just the value in mL/min, with no unit written.

Given the compound CN[C@H]1CN(c2ccc3c(=O)c(C(=O)O)cn(-c4nccs4)c3n2)C[C@@H]1OC [vosaroxin] , write its reported clearance.
75.7

====

run description: Plasma vosaroxin pharmacokinetics in patients
Assay type: in vivo, human
test context: human, plasma, intravenous, 72 mg/m2, MRT, mean, weekly, Day 1, 72 mg/m^2, N 11, cycle 1
property measured: MRT (h)
Dear colleague, please return just the value in h, with no unit written.

Given the compound `CN[C@H]1CN(c2ccc3c(=O)c(C(=O)O)cn(-c4nccs4)c3n2)C[C@@H]1OC` , write its reported MRT.
33.9

====

run description: Plasma vosaroxin pharmacokinetics in patients
Assay type: in vivo, human
test context: human, plasma, intravenous, Average total body clearance, all patients
property measured: clearance (mL/min)
Dear colleague, please return just the value in mL/min, with no unit written.

Given the compound CN[C@H]1CN(c2ccc3c(=O)c(C(=O)O)cn(-c4nccs4)c3n2)C[C@@H]1OC [vosaroxin] , write its reported clearance.
66.7

====

run description: Plasma vosaroxin pharmacokinetics in patients
Type: in vivo, human
test context: human, plasma, intravenous, CL, mean, twice weekly, Day 1, 9–50 mg/m^2, N 31, cycle 1
property measured: clearance (mL/min)
Dear colleague, please return just the value in mL/min, with no unit written.

Given the compound `CN[C@H]1CN(c2ccc3c(=O)c(C(=O)O)cn(-c4nccs4)c3n2)C[C@@H]1OC` , write its reported clearance.
72.8

====

run description: Plasma vosaroxin pharmacokinetics in patients
Format: in vivo, human
test context: human, plasma, intravenous, 72 mg/m2
property measured: AUC(0-t) (ng·h/mL)
Dear colleague, please return just the value in ng·h/mL, with no unit written.

Given the compound CN[C@H]1CN(c2ccc3c(=O)c(C(=O)O)cn(-c4nccs4)c3n2)C[C@@H]1OC [vosaroxin] , write its reported AUC(0-t).
32500
